B1: PPFIA4 (parent)
chain: PGVHRRYSALREESAKDWETSPLP

variants of: B1; test: protein stability index of a GFP-peptide fusion (GPS, HEK-293T) (PSI 1-6); higher = more stable; conditions: c terminus: a fixed tail appended;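 also: lentivirally expressed fusions sorted by FACS into six bins by GFP to DsRed ratio, PSI derived from sequencing read proportions per bin multiplied by bin number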
The reader will find reported protein stability index values listed item by item below.
Response field accepts a number only; no unit should be typed.

Worked examples follow.
A15K | 4.59
E13K | 3.69
W18V | 4.67
R11W | 3.16
L10Q | 3.63
R5C | 2.68

**Q:** Report protein stability index for `Y7A`
**A:** 4.8
